molecular target: c-Met (cytoplasmic domain) (Homo sapiens, UniProt P08581); construct: 10 ng/mL c-Met (cytoplasmic domain, Invitrogen Corporation #PV3143); purchased Invitrogen Corporation PV3143; test: c-Met Kinase Assay (same methods as for ALK, with modifications); type: biochemical; settings: c-Met kinase inhibition, 1 μM ATP (Km level); read-out: cMet Activity
Sequence (P08581 956-1390 limits assumed): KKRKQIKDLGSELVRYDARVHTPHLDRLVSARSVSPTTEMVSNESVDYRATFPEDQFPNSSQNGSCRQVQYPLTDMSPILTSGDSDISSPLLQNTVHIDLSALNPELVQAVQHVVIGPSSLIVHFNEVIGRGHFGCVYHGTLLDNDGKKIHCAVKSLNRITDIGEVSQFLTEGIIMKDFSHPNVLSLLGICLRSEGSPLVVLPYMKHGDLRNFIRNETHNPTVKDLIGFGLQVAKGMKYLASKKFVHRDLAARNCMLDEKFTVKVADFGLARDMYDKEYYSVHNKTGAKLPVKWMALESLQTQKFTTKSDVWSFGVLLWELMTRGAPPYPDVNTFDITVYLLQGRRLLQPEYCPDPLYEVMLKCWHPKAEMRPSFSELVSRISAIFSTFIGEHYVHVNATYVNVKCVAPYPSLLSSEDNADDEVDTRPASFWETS
pIC50: −log10 of the molar value.
Catalogue of pIC50 values
experimental endpoint: pIC50

compound	experimental endpoint	result value
CCN1CC2CC(C1)c1cc(Nc3ncc(Cl)c(Nc4ccccc4C(=O)NC)n3)ccc12 (centres unmarked) [Example 156]	pIC50	> 7.00
CN1CCN(CC2CC2)Cc2ccc(Nc3ncc(Cl)c(N[C@@H]4CCCC[C@H]4NS(C)(=O)=O)n3)cc21 [Example 479]	pIC50	5.00 to 6.00
CNS(=O)(=O)c1ccccc1Nc1nc(Nc2cccc3c2C(=O)NCCN3)ncc1Cl [Example 171]	pIC50	5.00 to 6.00
CNC(=O)c1ccccc1Nc1nc(Nc2ccc3c(c2)N(C)CCN(C(=O)N(C)C)C3)ncc1Cl [Example 489]	pIC50	> 7.00
COc1c(Nc2ncc(Cl)c(NC3C4C=CC(C4)C3C(N)=O)n2)ccc2c1CCCC(=O)N2C (centres unmarked) [Example 115]	pIC50	< 5.00
CNC(=O)c1ccccc1Nc1nc(Nc2ccc3c(c2)CCCCN3C)ncc1Cl [Example 103]	pIC50	> 7.00
CNC(=O)c1ccccc1Nc1nc(Nc2ccc3c(c2)CCN(CC(C)(C)F)CC3)ncc1Cl [Example 39]	pIC50	6.00 to 7.00
CCN1CCc2cc(Nc3ncc(Cl)c(Nc4ccccc4C(=O)NC)n3)c(OC)cc2CC1=O [Example 253]	pIC50	5.00 to 6.00
CS(=O)(=O)Nc1ccccc1Nc1nc(Nc2ccc3c(c2)CNC(=O)NC3)ncc1Cl [Example 225]	pIC50	5.00 to 6.00
CCN1CCc2cc(Nc3ncc(Cl)c(N[C@@H]4CCCC[C@H]4NS(C)(=O)=O)n3)c(OC)cc2CC1=O [Example 251]	pIC50	< 5.00
CNC(=O)c1ccccc1Nc1nc(Nc2ccc3c(c2)C2CC3CN(C(C)C)C2)ncc1Cl (centres unmarked) [Example 158]	pIC50	6.00 to 7.00
CCN1C(=O)CCCc2c1ccc(Nc1ncc(Cl)c(N[C@H]3CCC[C@H]3C(=O)NC)n1)c2OC (relative stereo) [Example 373]	pIC50	< 5.00
COc1cc2c(cc1Nc1ncc(Cl)c(Nc3ccc(N4CCOCC4)cc3OC)n1)CCN(CC(F)(F)F)CC2 [Example 249]	pIC50	< 5.00
CNC(=O)c1ccccc1Nc1nc(Nc2cc3c(cc2OC)CCN(CCOC)CC3)ncc1Br [Example 198]	pIC50	5.00 to 6.00
CNC(=O)c1ccccc1Nc1nc(Nc2ccc3c(c2)CCN(C)CC3)ncc1Cl [Example 46]	pIC50	> 7.00
CS(=O)(=O)N[C@@H]1CCCC[C@H]1Nc1nc(Nc2ccc3c(c2)C2CCC3CN(C(=O)C(F)(F)F)C2)ncc1Cl (mixture of isomers) [Example 292]	pIC50	5.00 to 6.00
COc1cc(N2CCOCC2)ccc1Nc1nc(Nc2ccc3c(c2)CCC(=O)CC3)ncc1Cl [Example 175]	pIC50	5.00 to 6.00
CNS(=O)(=O)c1ccccc1Nc1nc(Nc2ccc3c(c2)C2CCC3CN(C(C)C)C2)ncc1Cl (centres unmarked) [Example 274]	pIC50	> 7.00
COCCN1CCc2ccc(OC)c(Nc3ncc(Cl)c(N[C@@H]4CCCC[C@H]4NS(C)(=O)=O)n3)c2CC1 [Example 244]	pIC50	< 5.00
CC(C)NC(=O)c1ccccc1Nc1nc(Nc2ccc3c(c2)C(C)(C)CCC(=O)N3)ncc1Cl [Example 340]	pIC50	6.00 to 7.00
